# study target: human PDE2A1 (Homo sapiens, UniProt O00408)
# Construct: GST; purchased BPS Bioscience (San Diego, Calif.) 60020; host or cells: insect cells
# Sequence (O00408 1-920 isoform O00408-2): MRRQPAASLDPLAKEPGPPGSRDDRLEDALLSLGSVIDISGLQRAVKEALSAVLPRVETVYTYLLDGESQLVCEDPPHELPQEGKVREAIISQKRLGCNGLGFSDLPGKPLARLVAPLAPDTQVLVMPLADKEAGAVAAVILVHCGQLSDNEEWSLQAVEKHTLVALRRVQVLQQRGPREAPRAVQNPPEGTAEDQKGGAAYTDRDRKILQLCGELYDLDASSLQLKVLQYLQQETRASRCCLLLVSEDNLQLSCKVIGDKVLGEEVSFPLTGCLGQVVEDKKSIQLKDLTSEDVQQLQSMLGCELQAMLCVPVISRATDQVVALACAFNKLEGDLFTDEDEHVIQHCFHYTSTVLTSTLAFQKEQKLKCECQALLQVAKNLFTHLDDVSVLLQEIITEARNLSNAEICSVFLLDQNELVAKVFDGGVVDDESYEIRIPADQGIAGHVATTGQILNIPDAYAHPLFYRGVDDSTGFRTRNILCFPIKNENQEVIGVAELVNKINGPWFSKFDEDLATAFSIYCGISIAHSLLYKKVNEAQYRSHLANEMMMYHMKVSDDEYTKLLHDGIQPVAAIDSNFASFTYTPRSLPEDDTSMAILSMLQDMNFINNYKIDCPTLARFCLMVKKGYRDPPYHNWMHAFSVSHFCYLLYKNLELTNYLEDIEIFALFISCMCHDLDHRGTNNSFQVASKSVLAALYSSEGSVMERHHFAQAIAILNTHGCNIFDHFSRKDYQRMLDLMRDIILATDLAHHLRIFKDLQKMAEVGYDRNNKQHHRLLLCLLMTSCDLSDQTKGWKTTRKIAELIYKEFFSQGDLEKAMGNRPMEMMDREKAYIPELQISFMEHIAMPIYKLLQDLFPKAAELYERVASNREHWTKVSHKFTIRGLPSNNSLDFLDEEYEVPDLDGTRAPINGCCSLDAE
# assay details: IMAP FP PDE selectivity panel, human PDE2A1
# Type: biochemical
# assay conditions: Lab B; read-out: Human PDE2 Ki (nM) Lab B
recorded metric: Ki (nM)
// units = nM; emit number, no label

// known answers, use as guide
>>> endpoint_result("Cc1cc(N[C@@H](c2ccc(SC(F)(F)F)cc2)C2CC2)n2ncnc2n1")
14
>>> endpoint_result("Cc1cc(NC(C)(C)c2ccc(C(F)(F)F)cc2)n2ncnc2n1")
99
>>> endpoint_result("Cc1cc(N[C@H](C)c2ccc(S(F)(F)(F)(F)F)cc2)n2ncnc2n1")
68

Could you now look at the following compound, please?
Recorded Ki (compound CC(C)(O)[C@@H](Nc1cc(C(F)F)cc2ncnn12)c1ccc(OC(F)(F)F)cc1F ): 40

----------
# study target: human PDE2A1 (Homo sapiens)
# Construct: GST; purchased BPS Bioscience (San Diego, Calif.) 60020; host or cells: insect cells
# assay details: IMAP FP PDE selectivity panel, human PDE2A1
# Assay type: biochemical
# assay conditions: Lab B; read-out: Human PDE2 Ki (nM) Lab B
recorded metric: Ki (nM)
// units = nM; emit number, no label

// known answers, use as guide
>>> endpoint_result("Cc1cc(N[C@H](C)c2ccc(OC(F)(F)F)c(Cl)c2)n2ncnc2n1 [Example 9]")
138
>>> endpoint_result("C[C@@H](Nc1cncc2ncnn12)c1ccc(C(F)(F)F)cc1 [Example 288]")
221
>>> endpoint_result("Cc1cc(N[C@H](C)c2ccc(C(C)C)cc2)n2ncnc2n1 [Example 13]")
122
>>> endpoint_result("Cc1cc(NC2(c3ccc(C(F)(F)F)c(F)c3)CC2)n2nc(CF)nc2n1 [Example 197]")
80
>>> endpoint_result("CC(C)(O)[C@@H](Nc1cc(C(F)F)cc2ncnn12)c1ccc(OC(F)(F)F)c(F)c1 [Example 279]")
41
>>> endpoint_result("COCC(Nc1cc(C)nc2ncnn12)c1ccc(C(F)(F)F)c(F)c1 (single isomer, unassigned) [Example 210]")
583

Recorded Ki (compound Fc1cc(C2(Nc3cc(C(F)(F)C(F)(F)F)nc4ncnn34)CC2)ccc1C(F)(F)F [Example 74] ): 109

Recorded Ki (compound COCC(Nc1cc(C(F)(F)F)nc2ncnn12)c1ccc(C(F)(F)F)c(F)c1 (single isomer, unassigned) [Example 217] ): 329

Recorded Ki (compound CC(C)(C)[C@@H](Nc1cncc2ncnn12)c1ccc(C(F)(F)F)c(F)c1 [Example 284] ): 156

Recorded Ki (compound Cc1cc(N[C@H](C)c2ccc(OC(F)(F)F)cc2)n2ncnc2n1 [Example 7] ): 132

----------
# study target: human PDE2A1 (Homo sapiens, UniProt O00408)
# Construct: GST; purchased BPS Bioscience (San Diego, Calif.) 60020; host or cells: insect cells
# assay details: IMAP FP PDE selectivity panel, human PDE2A1
# Format: biochemical
# assay conditions: Lab B; read-out: Human PDE2 Ki (nM) Lab B
Could you mark each record label 1 if its Ki falls strictly under 40 nM, and label 0 if it equals or exceeds it?

>>> category("Cc1cc(NC(c2ccc(C(C)(C)C)cc2)C(C)(C)O)n2ncnc2n1 (single isomer, unassigned) [Example 106]")
"label 0"
>>> category("Cc1cc(N[C@H](C)c2ccc(C3(C)CC3)cc2)n2ncnc2n1")
"label 0"
>>> category("Fc1cc(C2(Nc3cc(Cl)nc4ncnn34)CC2)ccc1C(F)(F)F")
"label 1"

(Q) Just wondering, is Ki of COCc1cc(NC2(c3ccc(C(F)(F)F)c(F)c3)CC2)n2ncnc2n1 below 40 nM?
(A) label 0

(Q) Just wondering, is Ki of CC(C)(O)[C@H](Nc1cc(C(F)F)cc2ncnn12)c1ccc(S(F)(F)(F)(F)F)cc1 below 40 nM?
(A) label 0

Reference source for all entries: patent US10357481B2
